FYI, the data here is from patent US8580795B2.

Biological target: human PDE4B enzyme (PDE4B2) (Homo sapiens)
Assay: Phosphodiesterase 4 screening assay (SPA, [3H]-cAMP)
Type: biochemical
Settings: 100 nM compound; 0.5 μM cAMP
property: inhibition at 0.1 µM (%)

Worked examples, 6 molecules total:
{"smiles.notation": "COc1ccc(-c2nc3ncccc3o2)c2c1oc1ccccc12", "inhibition at 0.1 µM [%]": 37.2}
{"smiles.notation": "COc1ccc(-c2nc(CCC(=O)Nc3c(Cl)cncc3Cl)cs2)c2c1oc1ccccc12", "inhibition at 0.1 µM [%]": 32.8}
{"smiles.notation": "CNC(=O)c1coc(-c2ccc(OC)c3oc4ccccc4c23)n1", "inhibition at 0.1 µM [%]": 33.3}
{"smiles.notation": "CS(=O)(=O)Nc1ccc2oc3c(OC(F)F)ccc(-c4nc(C(=O)O)co4)c3c2c1", "inhibition at 0.1 µM [%]": 59.5}
{"smiles.notation": "O=C(Nc1c(Cl)cncc1Cl)c1csc(-c2ccc(OC(F)F)c3oc4ccccc4c23)n1", "inhibition at 0.1 µM [%]": 42.3}
{"smiles.notation": "COc1ccc(-c2nc(C(=O)N3CCN(c4ncc(C(=O)O)cn4)CC3)co2)c2c1oc1ccccc12", "inhibition at 0.1 µM [%]": 18.9}

1: COc1ccc(-c2nc(C(N)=O)co2)c2c1oc1ccccc12
2: COc1ccc(-c2nc3cc(C(=O)NC4CCCC4)ccc3o2)c2c1oc1ccccc12
3: COc1ccc(-c2nc(C(=O)Nc3ccc(Cl)cc3)cs2)c2c1oc1ccccc12
4: COc1ccc(-c2nc(C(=O)Nc3c(Cl)cncc3Cl)cs2)c2c1oc1ccccc12
Ask: Ascending by inhibition at 0.1 µM, please. Labels, ranked as asked.
Result: 3, 1, 2, 4

I: CCNC(=O)c1nc(-c2ccc(OC)c3oc4ccccc4c23)oc1C
II: COc1ccc(-c2nc(C(=O)Nc3ccccc3)cs2)c2c1oc1ccccc12
Ask: Among I and II , which shows a numerically higher inhibition at 0.1 µM result? # reply format: chosen label
Result: I

====

Target: human PDE4B enzyme (PDE4B2) (Homo sapiens, UniProt Q07343)
Sequence (Q07343 1-564 isoform Q07343-2): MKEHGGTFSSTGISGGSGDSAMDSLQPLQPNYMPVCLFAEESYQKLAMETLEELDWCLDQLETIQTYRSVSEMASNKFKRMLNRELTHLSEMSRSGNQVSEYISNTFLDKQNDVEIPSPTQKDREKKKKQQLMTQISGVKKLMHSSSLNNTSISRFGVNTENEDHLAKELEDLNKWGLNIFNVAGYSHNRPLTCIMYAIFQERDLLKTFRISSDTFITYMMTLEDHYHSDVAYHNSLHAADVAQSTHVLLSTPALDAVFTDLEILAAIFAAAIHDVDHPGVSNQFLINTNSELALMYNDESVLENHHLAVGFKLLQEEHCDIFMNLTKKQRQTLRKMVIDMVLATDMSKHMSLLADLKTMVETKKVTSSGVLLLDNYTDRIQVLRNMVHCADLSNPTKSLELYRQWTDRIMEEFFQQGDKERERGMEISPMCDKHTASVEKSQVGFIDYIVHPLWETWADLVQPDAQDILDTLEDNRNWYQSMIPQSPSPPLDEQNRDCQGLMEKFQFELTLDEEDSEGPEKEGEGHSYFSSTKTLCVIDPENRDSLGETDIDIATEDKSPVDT
Test: Phosphodiesterase 4 screening assay (SPA, [3H]-cAMP)
Assay type: biochemical
Conditions: 100 nM compound; 0.5 μM cAMP
property: inhibition at 0.1 µM (%)

Worked examples, 5 compounds total:
{"compound": "COc1ccc(-c2nc(CC(=O)Nc3c(Cl)cncc3Cl)cs2)c2c1oc1ccccc12", "inhibition at 0.1 µM / %": 8.92}
{"compound": "COc1ccc(-c2nc3cc(C(=O)O)ccc3o2)c2c1oc1ccccc12", "inhibition at 0.1 µM / %": 22.2}
{"compound": "COc1ccc(-c2nc(-c3ccc(C#N)cc3)cs2)c2c1oc1ccccc12", "inhibition at 0.1 µM / %": 5.16}
{"compound": "COc1ccc(-c2nc(C(N)=O)cs2)c2c1oc1ccccc12", "inhibition at 0.1 µM / %": 15.4}
{"compound": "CCOC(=O)c1csc(-c2ccc(OC)c3oc4ccccc4c23)n1", "inhibition at 0.1 µM / %": 17.6}

a: COc1ccc(-c2nc3cc(C(=O)NC4CCC(O)CC4)ccc3o2)c2c1oc1ccccc12 (stereo not drawn)
b: COc1ccc(-c2nc(C)c(C(=O)O)s2)c2c1oc1ccccc12
Ask: Among a and b , which shows a numerically higher inhibition at 0.1 µM result? # reply format: chosen label
Result: a

A: COc1ccc(-c2nc(C(=O)NC3CC3)co2)c2c1oc1ccccc12
B: COc1ccc(-c2nc(C(=O)N3CCN(c4ccccn4)CC3)cs2)c2c1oc1ccccc12
Ask: Among A and B , which shows a numerically higher inhibition at 0.1 µM result? # reply format: chosen label
Result: B

====

Target: human PDE4B enzyme (PDE4B2) (Homo sapiens)
Test: Phosphodiesterase 4 screening assay (SPA, [3H]-cAMP)
Format: biochemical
Conditions: 100 nM compound; 0.5 μM cAMP
property: inhibition at 0.1 µM (%)

Worked examples, 2 compounds total:
{"compound": "COc1ccc(-c2csc(-c3ccc(OC)c4oc5ccccc5c34)n2)cc1", "system.under.test": "human PDE4B enzyme (PDE4B2) (Homo sapiens)", "inhibition at 0.1 µM, %": 19.4}
{"compound": "COc1ccc(-c2nc(C(=O)O)cs2)c2c1oc1ccccc12", "system.under.test": "human PDE4B enzyme (PDE4B2) (Homo sapiens)", "inhibition at 0.1 µM, %": 36}

P: COc1ccc(-c2nc(C(=O)NC3CCC(O)CC3)c(C)o2)c2c1oc1ccccc12 (stereo not shown)
Q: COc1ccc(-c2nc(C(=O)N3CCCC3)co2)c2c1oc1ccccc12
Ask: Pick one: P or Q . Which one has the lower reported inhibition at 0.1 µM? # reply format: chosen label
Result: Q
(Q: 20.3%, P: 47.3%)

====

Target: human PDE4B enzyme (PDE4B2) (Homo sapiens, UniProt Q07343)
Assay: Phosphodiesterase 4 screening assay (SPA, [3H]-cAMP)
Format: biochemical
Details: 100 nM compound; 0.5 μM cAMP
property: inhibition at 0.1 µM (%)

Worked examples, 3 molecules total:
{"smiles.notation": "COc1ccc(-c2nc(C(=O)NC(C)C)c(C)o2)c2c1oc1ccccc12", "unit.abbrev": "%", "inhibition at 0.1 µM": 44.3}
{"smiles.notation": "COc1ccc(-c2nc3cc(C(N)=O)ccc3o2)c2c1oc1ccccc12", "unit.abbrev": "%", "inhibition at 0.1 µM": 18.1}
{"smiles.notation": "COc1ccc(-c2nc3ccccc3o2)c2c1oc1ccccc12", "unit.abbrev": "%", "inhibition at 0.1 µM": 54.9}

1: COc1ccc(-c2nc(C(=O)N3CCN(c4ncccn4)CC3)cs2)c2c1oc1ccccc12
2: COc1ccc(-c2nc(C(N)=O)c(C)o2)c2c1oc1ccccc12
3: CCOC(=O)c1sc(-c2ccc(OC)c3oc4ccccc4c23)nc1C
Ask: Ascending by inhibition at 0.1 µM, please. Labels, ranked as asked.
Result: 3, 1, 2
